# IC50 per record follows
# tgt: CRBN/DDB1 (Homo sapiens)
# Sequence (Q96SW2 whole entry, species assumed): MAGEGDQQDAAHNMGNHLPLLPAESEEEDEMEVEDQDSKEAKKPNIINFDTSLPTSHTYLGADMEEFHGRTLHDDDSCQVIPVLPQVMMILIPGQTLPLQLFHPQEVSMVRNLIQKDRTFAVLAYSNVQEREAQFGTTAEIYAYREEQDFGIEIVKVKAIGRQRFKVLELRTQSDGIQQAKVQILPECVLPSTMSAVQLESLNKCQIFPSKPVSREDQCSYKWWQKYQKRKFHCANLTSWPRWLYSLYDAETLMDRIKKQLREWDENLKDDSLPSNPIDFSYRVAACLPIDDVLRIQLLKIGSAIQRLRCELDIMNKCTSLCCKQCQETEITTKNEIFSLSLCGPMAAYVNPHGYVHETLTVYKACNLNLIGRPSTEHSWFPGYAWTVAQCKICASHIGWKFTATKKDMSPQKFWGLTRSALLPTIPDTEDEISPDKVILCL
# Sequence (Q16531 whole entry partner, species assumed): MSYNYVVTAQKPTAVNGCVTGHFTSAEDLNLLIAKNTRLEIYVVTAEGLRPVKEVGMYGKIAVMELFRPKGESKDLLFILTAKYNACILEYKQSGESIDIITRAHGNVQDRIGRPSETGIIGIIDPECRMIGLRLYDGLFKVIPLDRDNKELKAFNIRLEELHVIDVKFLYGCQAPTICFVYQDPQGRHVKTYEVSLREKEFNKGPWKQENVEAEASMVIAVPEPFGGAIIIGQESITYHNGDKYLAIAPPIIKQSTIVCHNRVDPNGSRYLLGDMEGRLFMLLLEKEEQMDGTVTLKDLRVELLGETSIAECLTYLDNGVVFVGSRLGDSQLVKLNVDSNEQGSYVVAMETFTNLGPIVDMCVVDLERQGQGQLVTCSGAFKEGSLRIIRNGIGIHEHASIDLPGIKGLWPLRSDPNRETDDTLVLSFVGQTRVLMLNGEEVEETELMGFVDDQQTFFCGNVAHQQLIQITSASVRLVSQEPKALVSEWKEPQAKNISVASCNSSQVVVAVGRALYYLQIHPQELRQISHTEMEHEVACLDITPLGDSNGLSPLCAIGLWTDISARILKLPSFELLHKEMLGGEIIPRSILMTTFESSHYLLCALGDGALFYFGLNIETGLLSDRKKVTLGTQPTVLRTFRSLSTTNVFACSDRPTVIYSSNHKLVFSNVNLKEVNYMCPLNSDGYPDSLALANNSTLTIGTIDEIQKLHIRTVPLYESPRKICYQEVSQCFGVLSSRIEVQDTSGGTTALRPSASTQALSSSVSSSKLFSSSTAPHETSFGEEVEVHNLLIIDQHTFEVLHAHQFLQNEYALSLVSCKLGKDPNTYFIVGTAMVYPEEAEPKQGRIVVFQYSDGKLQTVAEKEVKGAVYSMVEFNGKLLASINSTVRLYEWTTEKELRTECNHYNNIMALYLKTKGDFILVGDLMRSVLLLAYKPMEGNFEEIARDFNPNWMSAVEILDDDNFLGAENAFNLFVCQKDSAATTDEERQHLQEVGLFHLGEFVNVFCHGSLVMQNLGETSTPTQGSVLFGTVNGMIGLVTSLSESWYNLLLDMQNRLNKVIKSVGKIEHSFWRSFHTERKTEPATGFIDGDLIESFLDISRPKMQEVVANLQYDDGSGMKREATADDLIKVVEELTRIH
# experiment_summary: HTRF binding assay (displacement of Cy5-thalidomide probe from CRBN/DDB1)
# test_settings: CRBN/DDB1 2.5 nM, Cy5-Thalidomide 100 nM, 30 min; geometric mean; read-out: HTRF_Thali_Disp_DR_geo_IC50

molecule: COC[C@@H]1Cc2cc(C(F)(F)F)ccc2N1C(=O)Nc1ccc2c(c1)CN(C1CCC(=O)NC1=O)C2=O (stereo partly drawn)
IC50: 100 to 1000 nM
//
molecule: Cc1ccc2c(c1)CCN2C(=O)Nc1ccc2c(c1)CN(C1CCC(=O)NC1=O)C2=O (stereo not drawn)
IC50: 100 to 1000 nM
//
molecule: O=C1CCC(N2Cc3cc(NC(=O)N4c5cccc(F)c5C[C@H]4COC(F)F)ccc3C2=O)C(=O)N1 (stereo partly drawn)
IC50: 100 to 1000 nM
//
molecule: CC1c2ccccc2N(C(=O)Nc2ccc3c(c2)CN(C2CCC(=O)NC2=O)C3=O)C1C (stereo not drawn)
IC50: 100 to 1000 nM

Log: CRBN/DDB1 (Homo sapiens), molecule O=C1CCC(N2Cc3cc(NC(=O)N4CCc5ccc(C6CCC6)cc54)ccc3C2=O)C(=O)N1 (stereo not drawn) , IC50 = 100 to 1000 nM

Log: CRBN/DDB1 (Homo sapiens), molecule O=C1CCC(N2Cc3cc(NC(=O)N4Cc5cc(C6CC6)ccc5C45COC5)ccc3C2=O)C(=O)N1 (stereo not drawn) , IC50 = 100 to 1000 nM

Log: CRBN/DDB1 (Homo sapiens), molecule O=C1CCC(N2Cc3cc(NC(=O)N4CCc5ccc(-n6cccn6)cc54)ccc3C2=O)C(=O)N1 (stereo not drawn) , IC50 = 100 to 1000 nM

Log: CRBN/DDB1 (Homo sapiens), molecule COC[C@H]1Cc2ccccc2N1C(=O)Nc1ccc2c(c1)CN(C1CCC(=O)NC1=O)C2=O (stereo partly drawn) , IC50 = 100 to 1000 nM

###

# experiment_summary: Oral pharmacokinetics in male BALB/c mice
# Type: in vivo
# test_settings: mouse, PO 5 mg/kg (cassette dose), plasma, mean ± SD
quantity_kind: Cmax (ng/mL)
Use ng/mL as the unit, but write only the number.

Form: compound = COC[C@H]1Cc2c(F)cccc2N1C(=O)Nc1ccc2c(c1)CN(C1CCC(=O)NC1=O)C2=O (stereo partly shown) [Compound 303] ; Cmax = 7790

###

# tgt: CK1α (Homo sapiens, UniProt P48729)
# Construct: HEK293 clonal lines with CRISPR KI HiBiT tag on CSNK1A1
# Sequence (P48729 whole entry): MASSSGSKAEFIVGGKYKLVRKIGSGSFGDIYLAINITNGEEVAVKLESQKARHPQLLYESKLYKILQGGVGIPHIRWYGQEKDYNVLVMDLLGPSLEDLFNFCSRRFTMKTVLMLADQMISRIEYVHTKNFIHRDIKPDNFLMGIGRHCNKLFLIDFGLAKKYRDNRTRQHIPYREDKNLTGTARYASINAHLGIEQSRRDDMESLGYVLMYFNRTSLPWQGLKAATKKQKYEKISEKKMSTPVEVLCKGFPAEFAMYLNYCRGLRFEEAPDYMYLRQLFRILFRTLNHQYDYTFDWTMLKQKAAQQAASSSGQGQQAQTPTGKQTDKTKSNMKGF
# Sequence (Q96SW2 whole entry, further chain): as the sequence (Q96SW2 whole entry, species assumed) above
# Sequence (Q16531 2-1140 partner limits assumed): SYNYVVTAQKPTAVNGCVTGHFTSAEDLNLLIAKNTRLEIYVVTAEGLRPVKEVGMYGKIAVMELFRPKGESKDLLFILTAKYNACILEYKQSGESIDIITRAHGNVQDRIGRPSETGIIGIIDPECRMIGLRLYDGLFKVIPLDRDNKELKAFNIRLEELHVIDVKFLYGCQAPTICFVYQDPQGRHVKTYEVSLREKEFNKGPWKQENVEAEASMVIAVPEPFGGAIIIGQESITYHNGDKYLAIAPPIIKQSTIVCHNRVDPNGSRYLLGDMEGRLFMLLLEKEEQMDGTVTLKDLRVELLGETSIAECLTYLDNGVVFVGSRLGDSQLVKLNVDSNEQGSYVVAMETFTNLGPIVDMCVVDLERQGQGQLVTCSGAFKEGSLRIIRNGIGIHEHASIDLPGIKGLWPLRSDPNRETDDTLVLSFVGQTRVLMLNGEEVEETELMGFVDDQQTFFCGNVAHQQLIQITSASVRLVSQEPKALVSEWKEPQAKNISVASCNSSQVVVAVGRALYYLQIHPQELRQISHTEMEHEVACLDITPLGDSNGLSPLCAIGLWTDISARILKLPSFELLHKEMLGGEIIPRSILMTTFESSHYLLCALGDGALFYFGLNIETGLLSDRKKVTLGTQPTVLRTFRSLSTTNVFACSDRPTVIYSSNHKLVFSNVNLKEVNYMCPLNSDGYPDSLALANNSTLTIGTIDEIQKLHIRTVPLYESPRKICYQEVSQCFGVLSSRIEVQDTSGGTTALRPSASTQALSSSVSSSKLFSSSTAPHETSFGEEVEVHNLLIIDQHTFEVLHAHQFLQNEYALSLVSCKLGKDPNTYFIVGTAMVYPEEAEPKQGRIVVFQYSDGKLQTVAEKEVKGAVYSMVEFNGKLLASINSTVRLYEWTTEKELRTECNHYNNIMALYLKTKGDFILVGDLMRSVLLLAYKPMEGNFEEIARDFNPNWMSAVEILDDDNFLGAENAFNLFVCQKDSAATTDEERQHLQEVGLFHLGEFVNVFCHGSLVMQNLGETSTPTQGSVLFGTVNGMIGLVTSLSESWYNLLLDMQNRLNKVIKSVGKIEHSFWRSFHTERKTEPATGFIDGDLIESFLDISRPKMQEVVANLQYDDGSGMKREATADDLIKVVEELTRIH
# experiment_summary: CK1α NanoBit Assay (HiBiT-tagged CSNK1A1, HEK293 clonal lines)
# Assay type: cell-based
# test_settings: HEK293 HiBiT-CSNK1A1/LgBiT cells, 24 h incubation
quantity_kind: DC50

compound: O=C1CCC(N2Cc3cc(NC(=O)N4CCc5cccc(C(F)(F)F)c5C4)ccc3C2=O)C(=O)N1 (stereo not shown) [Compound 212]
tgt: CK1α (Homo sapiens, UniProt P48729)
DC50: < 0.1 µM
--
compound: C[C@@H]1Cc2cccc(F)c2N1C(=O)Nc1ccc2c(c1)CN(C1CCC(=O)NC1=O)C2=O (stereo partly shown) [Compound 350]
tgt: CK1α (Homo sapiens, UniProt P48729)
DC50: < 0.1 µM

Form: compound = O=C1CCC(N2Cc3cc(NC(=O)N4C[C@H]5CC4[C@H](c4ccccc4)C5)ccc3C2=O)C(=O)N1 (stereo partly shown) [Compound 230] ; DC50 = 0.1 to 1 µM

Form: compound = COC[C@H]1Cc2c(C3CC3)cccc2N1C(=O)Nc1ccc2c(c1)CN(C1CCC(=O)NC1=O)C2=O (stereo partly shown) [Compound 332] ; DC50 = < 0.1 µM

Form: compound = O=C1CCC(N2Cc3cc(NC(=O)N4CCC5CC54)ccc3C2=O)C(=O)N1 (stereo not shown) [Compound 221] ; DC50 = 0.1 to 1 µM

Form: compound = CN(C)C(=O)[C@@H]1Cc2ccccc2N1C(=O)Nc1ccc2c(c1)CN(C1CCC(=O)NC1=O)C2=O (stereo partly shown) [Compound 327] ; DC50 = 0.1 to 1 µM

Form: compound = O=C1CCC(N2Cc3cc(NC(=O)N4Cc5cccnc5C4)ccc3C2=O)C(=O)N1 (stereo not shown) [Compound 121] ; DC50 = 0.1 to 1 µM

Data provenance is patent US20250171420A1.
